Tested on: 5-Lipoxygenase
Procedure Text: Inhibition of leukotriene biosynthesis in vitro: calcium ionophore-induced LTB4 formation in human polymorphonuclear leukocytes (PMNL)
Format: cell-based
Stated Conditions: calcium ionophore 8.3 μM, 15 min preincubation, 37 °C, read-out: IC50, In Vitro Inhibitory Potencies Against 5-Lipoxygenase from Stimulated LTB4 Formation in Human Polymorphonuclear Leukocytes
Where a name gives a salt, the structure may show the parent alone.
Outcome Measure: pIC50
# pIC50: negative log10 of molar concentration; output just the value

Need pIC50, item CC(CCC(=O)O)(c1ccc(OCc2ccc3ccccc3n2)cc1)c1ccc(OCc2nc3ccccc3s2)cc1 (stereo not shown) [Example 2, sodium salt] 7.28
